Every entry's value here was drawn from patent US9441018B2.

Tested on: phospholipase/lipase MPIaG
Type: biochemical, tidal flat metagenome
MEASUREMENT_CONTEXT: additive 10 mM
Reported Enzyme activity relative value (%) is given for each of the following compounds.
EXPERIMENTAL_ENDPOINT: Enzyme activity relative value (%)

                                   compound                   tested_on  data_value
0                        [Ca+2].[Cl-].[Cl-]  phospholipase/lipase MPIaG        994%
1                              [Cl][Ni][Cl]  phospholipase/lipase MPIaG          7%
2                        [Cl-].[Cl-].[Zn+2]  phospholipase/lipase MPIaG          5%
3                                      OCCS  phospholipase/lipase MPIaG         80%
4                              [Cl][Cu][Cl]  phospholipase/lipase MPIaG         11%
5  O=S(=O)(F)Cc1ccccc1 [PMSF, phenyl methyl sulfonyl fluoride]  phospholipase/lipase MPIaG        105%
6            O[C@H](CS)[C@H](O)CS (racemic)  phospholipase/lipase MPIaG        105%
7                  O=S(=O)([O-])[O-].[Fe+2]  phospholipase/lipase MPIaG        151%
8                        [Cl-].[Cl-].[Mg+2]  phospholipase/lipase MPIaG        142%

====

System: phospholipase/lipase MPIaG
MEASUREMENT_CONTEXT: organic solvent 20%
The reader will find reported Enzyme activity relative value (%) values listed item by item below.
EXPERIMENTAL_ENDPOINT: Enzyme activity relative value (%)

>>> df
                                  molecule               experimental_endpoint  units  data_value
0                            CCO [Ethanol]  Enzyme activity relative value (%)      %         100
1  C[S+](C)[O-] [DMSO, dimethyl sulfoxide]  Enzyme activity relative value (%)      %          98
2                      CC#N [Acetonitrile]  Enzyme activity relative value (%)      %         100
3        CN(C)C=O [DMF, dimethylformamide]  Enzyme activity relative value (%)      %          99
4                        CC(C)=O [Acetone]  Enzyme activity relative value (%)      %          96
5                      CC(C)O [2-propanol]  Enzyme activity relative value (%)      %         101
6                            CO [Methanol]  Enzyme activity relative value (%)      %         100

====

Documented Enzyme activity relative value (%) across a set of molecules
Tested on: phospholipase/lipase MPIaG
Assay type: biochemical, tidal flat metagenome
MEASUREMENT_CONTEXT: additive 5 mM
EXPERIMENTAL_ENDPOINT: Enzyme activity relative value (%)

>>> print(df.to_string())
                                   molecule               experimental_endpoint  data_value
0                              [Cl][Cu][Cl]  Enzyme activity relative value (%)          32
1                        [Cl-].[Cl-].[Zn+2]  Enzyme activity relative value (%)           9
2                              [Cl][Ni][Cl]  Enzyme activity relative value (%)          23
3                        [Ca+2].[Cl-].[Cl-]  Enzyme activity relative value (%)        1015
4                        [Cl-].[Cl-].[Mg+2]  Enzyme activity relative value (%)         198
5                  O=S(=O)([O-])[O-].[Fe+2]  Enzyme activity relative value (%)         142
6  O=S(=O)(F)Cc1ccccc1 [PMSF, phenyl methyl sulfonyl fluoride]  Enzyme activity relative value (%)         107
7            O[C@H](CS)[C@H](O)CS (racemic)  Enzyme activity relative value (%)         107
8                                      OCCS  Enzyme activity relative value (%)         108

====

Enzyme activity relative value (%) values, listed per item
Test system: phospholipase/lipase MPIaG
MEASUREMENT_CONTEXT: organic solvent 50%
EXPERIMENTAL_ENDPOINT: Enzyme activity relative value (%)

                                  compound  data_value
0  C[S+](C)[O-] [DMSO, dimethyl sulfoxide]          98
1        CN(C)C=O [DMF, dimethylformamide]          93
2                            CCO [Ethanol]          94
3                        CC(C)=O [Acetone]          96
4                            CO [Methanol]          93
5                      CC(C)O [2-propanol]          96
6                      CC#N [Acetonitrile]          98

====

Tested on: phospholipase/lipase MPIaG
MEASUREMENT_CONTEXT: organic solvent 60%
Below, each of the molecules is paired with its reported Enzyme activity relative value (%) value.
EXPERIMENTAL_ENDPOINT: Enzyme activity relative value (%)

>>> print(df.to_string())
                                  molecule               experimental_endpoint  units  data_value
0        CN(C)C=O [DMF, dimethylformamide]  Enzyme activity relative value (%)      %          98
1                            CO [Methanol]  Enzyme activity relative value (%)      %          98
2                      CC#N [Acetonitrile]  Enzyme activity relative value (%)      %          99
3  C[S+](C)[O-] [DMSO, dimethyl sulfoxide]  Enzyme activity relative value (%)      %          81
4                      CC(C)O [2-propanol]  Enzyme activity relative value (%)      %          99
5                            CCO [Ethanol]  Enzyme activity relative value (%)      %          98
6                        CC(C)=O [Acetone]  Enzyme activity relative value (%)      %          99

====

Measured Enzyme activity relative value (%), listed per entry.
Tested on: phospholipase/lipase MPIaG
Format: biochemical, tidal flat metagenome
MEASUREMENT_CONTEXT: additive 1 mM
EXPERIMENTAL_ENDPOINT: Enzyme activity relative value (%)

>>> print(df.to_string())
                                   compound                   tested_on               experimental_endpoint  data_value
0                [Cl-].[Cl-].[Mg+2] [MgCl2]  phospholipase/lipase MPIaG  Enzyme activity relative value (%)         105
1                      [Cl][Cu][Cl] [CuCl2]  phospholipase/lipase MPIaG  Enzyme activity relative value (%)         135
2                      [Cl][Ni][Cl] [NiCl2]  phospholipase/lipase MPIaG  Enzyme activity relative value (%)          62
3  O[C@H](CS)[C@H](O)CS (racemic) [DTT, dithiothreitol]  phospholipase/lipase MPIaG  Enzyme activity relative value (%)          93
4                [Ca+2].[Cl-].[Cl-] [CaCl2]  phospholipase/lipase MPIaG  Enzyme activity relative value (%)         466
5                [Cl-].[Cl-].[Zn+2] [ZnCl2]  phospholipase/lipase MPIaG  Enzyme activity relative value (%)         107
6  O=S(=O)(F)Cc1ccccc1 [PMSF, phenyl methyl sulfonyl fluoride]  phospholipase/lipase MPIaG  Enzyme activity relative value (%)          94
7                  OCCS [2-mercaptoethanol]  phospholipase/lipase MPIaG  Enzyme activity relative value (%)         105
8          O=S(=O)([O-])[O-].[Fe+2] [FeSO4]  phospholipase/lipase MPIaG  Enzyme activity relative value (%)         137
